Give ED80 (ppm) SEPTTR-184 1DP for every item shown.
Tested on: Zymoseptoria tritici (SEPTTR-184)
Test: Cyp51 dsRNA tile (fragment) foliar application bioassay (Example 6)
Assay type: in vivo
Conditions: 1 day protectant; calculated from disease control

Field: example entries. Status: answers known.
molecule	property-name	observed-value
MgCyp51-T10: dsRNA tile of Zymoseptoria tritici Cyp51, 172 bp, location 345-516 (nucleic acid, listed as Zymoseptoria tritici) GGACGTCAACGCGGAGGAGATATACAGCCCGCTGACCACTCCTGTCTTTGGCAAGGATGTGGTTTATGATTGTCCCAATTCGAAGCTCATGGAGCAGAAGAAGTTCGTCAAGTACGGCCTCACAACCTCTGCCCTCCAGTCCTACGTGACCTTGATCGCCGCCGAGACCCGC	ED80 (ppm) SEPTTR-184 1DP	>200 ppm
MgCyp51-T7: dsRNA tile of Zymoseptoria tritici Cyp51, 111 bp, location 1490-1600 (nucleic acid, listed as Zymoseptoria tritici, long dsRNA tile, purified, chemistry not given here) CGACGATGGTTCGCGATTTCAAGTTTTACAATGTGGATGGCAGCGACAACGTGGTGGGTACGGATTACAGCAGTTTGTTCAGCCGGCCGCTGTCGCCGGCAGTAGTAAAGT	ED80 (ppm) SEPTTR-184 1DP	>200 ppm

Request: For YFP: non-target dsRNA control (YFP, yellow fluorescent protein coding region) (nucleic acid, double-stranded RNA; synthesized partial coding region) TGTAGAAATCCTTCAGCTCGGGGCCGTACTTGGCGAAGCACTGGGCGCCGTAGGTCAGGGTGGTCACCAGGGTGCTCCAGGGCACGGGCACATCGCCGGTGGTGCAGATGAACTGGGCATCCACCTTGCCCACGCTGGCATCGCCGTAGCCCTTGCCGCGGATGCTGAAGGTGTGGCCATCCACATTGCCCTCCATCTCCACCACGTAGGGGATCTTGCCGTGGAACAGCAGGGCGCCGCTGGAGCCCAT , what is its reported ED80 (ppm) SEPTTR-184 1DP?
Response: >200 ppm
